This listing pairs compounds with measured melting point.

Field: example entries. Status: answers known.
>>> recorded_result("CCCCCCCNC(=O)Nc1ccccc1C(=O)NCC1c2ccccc2COc2ccc(Br)cc21 (stereo not given)")
"71 to 76 °C"
>>> recorded_result("c1ccc2c(c1)-c1sccc1C2Cc1ccncc1 (stereo not given)")
"91 to 93 °C"
>>> recorded_result("COc1ccc(C=CC(=O)Nc2cccc(C(=O)O)c2)cc1OC")
"225 to 226 °C"
>>> recorded_result("S=C(NCN1CCOCC1)C(CN1CCOCC1)c1ccccn1 (stereo not given)")
"109 to 111 °C"
>>> recorded_result("Cc1cc(C)nc([NH+]([O-])C(=O)Cc2ccsc2)c1 (stereo not given)")
"154 °C"
>>> recorded_result("COC(=O)c1ccc(CC(C)NCC(O)c2ccc(O)c(CO)c2)c(F)c1 (stereo not given)")
"97 to 100 °C"

Item: `CCOCc1nc2c(N)nc(C)cc2n1CCCCNS(C)(=O)=O` | melting point: 162 to 164 °C

Item: `CCOC(=O)C1(C(=O)Nc2ccc(Cl)cc2CC)CC1` | melting point: 77 to 80 °C

Item: CC1Oc2cc(F)c(N)cc2NC1=O (stereo not given) | melting point: 208 to 211 °C

Item: O=C(c1ccncc1)[N+]1([O-])CCC(=C2c3ccccc3CCn3ccnc32)CC1 (stereo not given) | melting point: 155 to 159 °C

Item: `COCc1cc(Cl)n2nc(SC)c(S(=O)(=O)c3ccccc3)c2n1` | melting point: 194 to 197 °C

---

This listing pairs compounds with measured melting point.

Field: example entries. Status: answers known.
>>> recorded_result("CN1CC2=C(n3cncc3C1)S(=O)C=C2 (stereo not given)")
"160 to 163 °C"
>>> recorded_result("O=c1[nH]c2cc(Cl)ccc2n(C2CCCCC2)c1=O")
"265 to 266 °C"

Item: `Cc1nc2c3c(c(C(=O)N(C)C)cc2n1C)CCC1(Cc2ccccc2C1)N3` | melting point: 178 to 179 °C

Item: `CC(C)(C)Nc1c(NCc2cccc(F)c2)c(=O)c1=O` | melting point: 295 to 297 °C

Item: `COC(=O)[C@H](Cc1ccc(-c2c(C)cc(C(F)(F)F)n(C)c2=O)cc1)NC(=O)c1c(Cl)cccc1Cl` | melting point: 170 to 173 °C

---

observation-type: melting point

Item: `COc1ccc2c3c(c(=O)oc2c1)CN(Cc1cccnc1)CC3` | melting point: 107 to 110 °C

Item: `O=C1NCCc2cc(Br)ccc21` | melting point: 137 to 139 °C

Item: Cc1nc2c(O)c(CCC(O)c3ccccc3)c(C(=O)N(C)C)cc2n1C (stereo not given) | melting point: 216 to 218 °C

Item: `O=C(O)Cc1cn(Cc2ccc(OCc3csc(-c4ccccc4)n3)nc2)nc1-c1ccccc1` | melting point: 118 to 119 °C

Item: `Cc1ncn(-c2ccc(C(=O)N3Cc4cccn4Cc4ccccc43)c(Cl)c2)n1` | melting point: 191 to 193 °C

Item: `CC(C)(C)C(=O)OCN(c1ccc(CN2CCN(Cc3ccccc3)C(=O)C2=O)cc1)c1ncccn1` | melting point: 144 to 146 °C

Item: `Cn1c2ccccc2c2c(C(=O)C(F)(F)F)csc21` | melting point: 138 to 140 °C
